Test: Phase solubility studies (Higuchi and Connors) with RAMEB
Conditions: aqueous RAMEB solution, 25 °C, aqueous with cosolvent or surfactant or cyclodextrin, thermodynamic from solid
propertyName: solubility at 1 week

(Q) Item `c1ccc2c(c1)ccc1ccccc12` has what recorded solubility at 1 week?
(A) ≤ 572 µg/mL

(Q) Return reported solubility at 1 week; argument: `c1ccc2c(c1)Cc1ccccc1-2`
(A) ≤ 574 µg/mL

* * *

Assay: Phase solubility studies: comparison of the six PAHs across the three CDs
Conditions: 25 °C, aqueous with cosolvent or surfactant or cyclodextrin, thermodynamic from solid
propertyName: solubility at 1 week

(Q) Please give the measured solubility at 1 week for this molecule: `c1cc2c3c(cccc3c1)CC2`
(A) 125 to 147 µg/mL
